experiment: Pharmacokinetics of insufflated ImaT powder in rat: lung sections; assay type: in vivo, Sprague Dawley rats; conditions: male, Sprague Dawley, rat, lung, section 6 (homogenate), inhaled, 4 mg/kg; read-out: Lung conc, Section 6
quantity: concentration at 0.08 h (µg/mL)
Please give a number only; it is taken to be in µg/mL.

Query string: Entry Cc1ccc(NC(=O)c2ccc(CN3CCN(C)CC3)cc2)cc1Nc1nccc(-c2cccnc2)n1 : reported concentration at 0.08 h = ?
Result string: 4.74

---

assay: Pharmacokinetics of insufflated ImaT powder in rat: lung sections; format: in vivo, Sprague Dawley rats; details: male, Sprague Dawley, rat, lung, section 6 (homogenate), inhaled, 4 mg/kg; read-out: Lung conc, Section 6
quantity: concentration at 4 h (ng/mL)
Please give a number only; it is taken to be in ng/mL.

Query string: Entry Cc1ccc(NC(=O)c2ccc(CN3CCN(C)CC3)cc2)cc1Nc1nccc(-c2cccnc2)n1 : reported concentration at 4 h = ?
Result string: 66.3
